- Experiment Notes: Pharmacokinetics in Balb/c nude mice
- Type: in vivo
- Test Settings: Balb/c nude; IP 40 mg/kg, whole blood, female mouse
Parameter Measured: MRT last (h)
Numbers only, in h.

Q) Quick one: give measured MRT last for CCC12C(=O)C(CC)(C(c3ccccc3)=C1c1ccccc1)C1C(=O)N(CC(O)CNC(C)C)C(=O)C12 (stereo not shown)
A) 7.48

---

- Experiment Notes: Pharmacokinetics in Balb/c nude mice
- Type: in vivo
- Test Settings: female, Balb/c nude, mouse; IV 20 mg/kg, blood
Parameter Measured: half-life (min)
Numbers only, in min.

Q) Quick one: give measured half-life for CCC12C(=O)C(CC)(C(c3ccccc3)=C1c1ccccc1)C1C(=O)N(CC(O)CNC(C)C)C(=O)C12 (stereo not shown)
A) 199

The reported numbers originate from paper PMC9332833.
